Give pKd for every item shown.
Molecular target: T1, PUF4 RNA-binding domain (Saccharomyces cerevisiae, UniProt P25339 537-888)
T1 sequence: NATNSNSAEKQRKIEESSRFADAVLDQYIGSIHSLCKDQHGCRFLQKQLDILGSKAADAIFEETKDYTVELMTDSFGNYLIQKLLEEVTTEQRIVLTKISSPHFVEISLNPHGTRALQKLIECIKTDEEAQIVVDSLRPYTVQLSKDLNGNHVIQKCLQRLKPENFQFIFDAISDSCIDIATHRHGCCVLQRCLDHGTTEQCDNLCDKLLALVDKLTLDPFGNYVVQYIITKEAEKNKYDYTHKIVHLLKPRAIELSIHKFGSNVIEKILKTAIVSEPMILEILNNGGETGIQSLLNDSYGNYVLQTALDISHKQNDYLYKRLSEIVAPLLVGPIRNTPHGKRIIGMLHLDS
Assay: Mg; RNA-MaP; 20 mM Na-HEPES pH 7.4, 30 mM KOAc, 0.75 mM MgCl2, 0.1% Tween-20, 5% glycerol, 0.1 mg/mL BSA, 2 mM DTT; 25 C; 0.0125-409.6 nM protein
Conditions: tags: N-His6-TEV cleaved; C-SNAP kept, Cy3B-labelled; label: tethered on chip by stalled RNA polymerase
Numbers only, as −log10 of the molar value.

- binder: "Ic_S4_P5E.1_K5.1_C5.1_H5.1_A5.1_[T6G]_[A7C]_F5.1_[T8C]_[T9C]_[A10T]_T5.1 (ssRNA) RNA: UUUGACAACUGAUCGUUCUUUCUUGUAUGCCCUUUCUUUCUCGAUCAGUUGUCUUU"
  measuredResult: 6.28
- binder: "Ia_S2_P5E.1_K5.1_C5.1_H5.1_A5.1_[T6A]_F5.1_T5.1 (ssRNA) RNA: UUUGAUUAAUAUGAUAUCGUUCUUUCUUGUAUAAUUAUUCUUUCUCGAUAUCAUAUUAAUCUUU"
  measuredResult: 8.63

Give pKd for each listed item.
1. Id_ii_S2_P4E.3_K4.2_C4.2_[C-2A]_[T-1C]_H4.2_A4.1_F4.1_T4.2_[G10A]_[T11A] (ssRNA) RNA: UUUGAUUAAUAUGAUAUCGUUCUUUCUACUAUAUAUUAAAUUCUUUCUCGAUAUCAUAUUAAUCUUU
2. Id_ii_S2_P3E.3_K3.2_C3.2_[C-2G]_H3.2_A3.1_F3.1_T3.2_[A10G] (ssRNA) RNA: UUUGAUUAAUAUGAUAUCGUUCUUUCUGUUAUAUAUAUGUUCUUUCUCGAUAUCAUAUUAAUCUUU
3. UCUCUUUUUGUAUUAUUAUUUCUCUU (ssRNA) [Id_ii_S1_P5E.2_K5.1_C5.2_[C-2T]_H5.1_A5.1_F5.1_T5.2_[A12T]]

-- reply
1. 7.68
2. 7.64
3. 7.99

Data origin, for the record: paper PMC9352680
